Measured inhibition, listed per entry for reference.
target: Dual specificity tyrosine-phosphorylation-regulated kinase 1B (Homo sapiens); conditions: at 1 µM;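 also: values are mean percent inhibition of DYRK1B, from the GSK_PKIS set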
assay endpoint: inhibition (%)

>>> print(df.to_string())
                                        smi  assay_endpoint  assay_result
0  CN(c1ccc(NC(=O)Nc2ccc(OC(F)(F)F)cc2)cc1)c1ccnc(Nc2cccc(S(N)(=O)=O)c2)n1      inhibition         -0.44
1  NS(=O)(=O)c1ccc(-c2cc3ccncc3cc2OCc2ccccc2)cc1      inhibition          2.12
2       COc1cc2ncnc(Nc3ccc(C)c(O)c3)c2cc1OC      inhibition          4.18
3  [O-][S+]1CCN(Cc2ccc(-c3ccc4ncnc(Nc5ccc(OCc6ccccc6)c(Cl)c5)c4c3)o2)CC1      inhibition          0.51
4  FC(F)(F)c1ccc(-c2nn3ncccc3c2-c2ccnc(Nc3ccc4c(c3)OCCO4)n2)cc1      inhibition          5.88
